composite z-score values for the compounds below.
Tested on: Human papillomavirus type 1a protein E7 (residues 44-93)
Assay: small molecules binding HPV E7 44-93 – biochemical, small-molecule microarray, residues 44-93, 635 nm fluorescence, primary screen (AID 1108);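 also: E7 fragment applied at 1 µg/mL in TBST for 1 h at 4 C; score combines spot fluorescence with its signal to noise ratio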
Details: fluorescence 635 nm, higher = more signal
reportedProperty: composite z-score

- CCCCC(=C=CC[C@@H](O)c1ccc(CO)o1)CCO: 0.378
- COC(=O)[C@@]1(Cc2ccccc2)[C@H]2c3cc(C(=O)N(C)C)n(Cc4ccc(OC)c(OC)c4)c3C[C@H]2CN1C(=O)c1ccccc1: 1.46
- CN(C)CCCCNC(=O)[C@@H]1C[C@@H]2C(=O)N[C@@H](CCCCN)C(=O)N2[C@@H]1c1ccc(O)cc1: 0.0215
- C=CC[C@@]1(C(=O)N2CCCCC2)N=C(c2ccc(OCCCO)cc2)O[C@@H]1c1ccccc1CN=[N+]=[N-]: 1.48

---

z-score values for the compounds below.
Assay: optical density shifts of acrAB sulA E. coli – strain DRC41, OD650, 48 h, E. coli filamentation inducer project, primary screen (AID 1152);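 also: E. coli MC1000 strain DRC41 lacking acrAB efflux pump and sulA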
Conditions: higher = more signal, called active from +8 up or from −8 down
The source made the active and inactive calls.
reportedProperty: z-score

- COc1ccc([Si](C)(C)[C@@H]2[C@@H](CC(=O)N3Cc4ccccc4C[C@H]3CO)O[C@]3(C(=O)N(Cc4cccc(N5CCC5=O)c4)c4ccccc43)[C@H]2C)cc1: -0.879 (inactive)
- O=C1C2C=CC(C(O)C=Cc3ccc([N+](=O)[O-])cc3)N(n3cnnc3)C2C(=O)N1Cc1ccccc1 (stereo not given): -0.892 (inactive)
- NC(=O)NCC#Cc1ccc2c(c1)[C@]1(C(=O)N2)[C@H](C(=O)O)[C@H]2C(=O)O[C@H](c3ccccc3)[C@H](c3ccccc3)N2[C@@H]1c1ccc(O)cc1: -1.29 (inactive)
- O=C(O)[C@@]1(CCS(=O)(=O)c2ccccc2)N=C(c2ccc(OCCCO)cc2)O[C@H]1c1ccccc1: 0.183 (inactive)
- O=C1O[C@H](c2ccccc2)[C@H](c2ccccc2)N2[C@H]1[C@@H](C(=O)N1CCN(c3ncccn3)CC1)[C@]1(C(=O)Nc3ccc(C#CC4=CCCCC4)cc31)[C@H]2c1ccccc1OCCO: -0.544 (inactive)

---

Test: change in splice reporter luminescence, either direction, cell-based, HEK293, spliceosome inhibition project, primary screen (AID 1101);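 also: HEK293 cells carrying a splicing-competent luciferase reporter gene; test concentration not given here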
Conditions: HEK293 splicing luciferase reporter, 24 h, higher = more signal, called active from +8 up or from −8 down
z-score values for the compounds below.
reportedProperty: z-score

* CCOC(=O)C[C@H]1[C@H](OC(=O)c2ccc(-c3ccccc3)cc2)[C@@H](NC(=O)c2ccccc2)c2cc(OCCCO)ccc2N1C(=O)c1ccc2ccccc2n1 | 0.00513
* O=C(CS)NCCCCCNC(=O)[C@@H]1C[C@@H]2C(=O)NCC(=O)N2[C@@H]1c1ccc(O)cc1 | 0.0774
* CCCCC(=C=CC[C@@H](O)c1ccc(CO)o1)CCO | 0.37
* [N-]=[N+]=Nc1ccccc1C[C@@]1(C(=O)N2CCCCC2)N=C(c2ccc(OCCCO)cc2)O[C@@H]1c1ccccc1N=[N+]=[N-] | 0.766
* C=CC[C@@]1(C(=O)N2CCCCC2)N=C(c2ccc(OCCCO)cc2)O[C@@H]1c1ccccc1CN=[N+]=[N-] | -0.431
* CCCNC(=O)[C@@H]1c2ccccc2C(=O)N(Cc2ccccc2OC)[C@H]1c1ccc(CO)cc1 | 0.233
* CCCCN1CC=CC23O[C@@H]4/C=C\CCCOC(=O)C4[C@H]2C(=O)N(CCCCCO)[C@@H]3C1=O (stereo partly specified) | 1.08
* CO[C@H]1O[C@H](CO)[C@@H](OC(=O)Nc2cccc(F)c2)[C@H](OC(=O)Nc2ccccc2)[C@H]1OC(=O)Nc1ccccc1 | -0.0505
* CC(C)[Si](C#C[Si](C(C)C)(C(C)C)C(C)C)(O[C@H](C)c1cn(Cc2ccccc2)nn1)C(C)C | -0.9
* COc1cc(CO)cc(I)c1O[C@H]1C=C(C(=O)NCCO)C[C@@H](NC[C@@H]2CCCO2)[C@@H]1O | -0.466
* OB1C=CCC(CCc2ccccc2)O1 (stereo unspecified) | -0.817
* C=C(CCCC)/C(=C/C[C@H](OC(C)=O)c1ccc(OCCO)cc1)c1cnc2ccccc2c1 | 0.299
* COc1cc2c(cc1O)C=[N+](Cc1cc3c(cc1Br)OCO3)CC2 | -0.244
* Cc1ccc(S[C@]2(C(=O)NCC(C)C)CC(=O)N(Cc3cc(C(F)(F)F)cc(C(F)(F)F)c3)[C@@H]2c2ccc(CO)cc2)cc1 | 0.585
* COC(=O)C(CC#Cc1ccc2c(c1)[C@]1(C(=O)N2)[C@H](c2ccc(O)cc2)N2[C@H](c3ccccc3)[C@H](c3ccccc3)OC(=O)[C@H]2[C@@H]1C(=O)N1CCN(c2ncccn2)CC1)C(=O)OC | -0.84
* O=C1O[C@@H](c2ccccc2)[C@@H](c2ccccc2)N2[C@@H](c3ccccc3OCCO)[C@]3(C(=O)Nc4ccc(C#CC5(O)CCCCCC5)cc43)[C@@H](C(=O)N3CCN(c4ncccn4)CC3)[C@H]12 | -0.562
